The origin of these recorded values is patent US20260258115A1.

# TESTED SYSTEM: T1, RSV prefusion F (preF), subtype B (respiratory syncytial virus subtype B)
# T1 construct: also called Prefusion subtype B
# TEST METHOD NOTES: BLI, IgG
ENDPOINT LABEL: pKd
The read-out pKd is expressed as -log10 of concentration in moles per litre.

Past entries and their recorded results:
BINDER	pKd
ADI-14361 (antibody, V domains shown, full-length IgG; also called Ab 29) VH: EVQLLESGGGFVQPGGSLRLSCAASGFTFSSYAVNWVRQAPGKGLEWVSLISGSGRTDYTDSVKGRFTISRDNAKNTLFLQMNSLRVEDTAVYYCAKSWGSSGYGYLDYWGQGTLVTVSS VL: QSGLTQPPSVSGAPGQRVTISCTGSSSNIGPGTDVHWYQHFPGTAPKLLIFGNSNRPSGVPDRFSGSKSGTSASLAITGLQAEDEAYYYCQSYDRTLSASVFGGGTKLTVL	7.28
ADI-24831 (antibody, V domains shown, full-length IgG; also called Ab 393) VH: QVQLVESGGGLVKPGGSLRLSCAASGFTFSSYSMNWVRQAPGKGLEWVSSISSSSSYIYYADSVKGRFTISRDNAKNSLYLQMNSLRAEDTAVYYCARVPSDFWSGYYNDYWGQGTLVTVSS VL: QSVLTQPPSVSGAPGQRVTISCTGSSSNIGAGYDVHWYQQLPGTAPKLLIYGNSNRPSGVPDRFSGSKSGTSASLAITGLQAEDEADYYCQSYDSSLSGSWVFGGGTKLTVL	8.21

Could you now look at the following binder, please?
Determine from records and report pKd for ADI-19425 (antibody, V domains shown, full-length IgG; also called Ab 140) VH: EVQLVESGGGLVKPGGSLRLSCAASGFTFSSYSMNWVRQAPGKGLEWVSSISSSSSYIYYADSVKGRFTISRDNAKNSLYLQMNSLRAEDTAVYYCARLGYCSGGSCHFDYWGQGTLVTVSS VL: QPVLTQPPSVSGAPGQRVTISCTGSSSNIGAGYDVHWYQQLPGTAPKLLIYGNSNRPSGVPDRFSGSKSGTSASLAITGLQAEDEADYYCQSYDSSLSGFYVFGTGTKLTVL 8.86
